Values from PubChem BioAssay AID488839

Molecular target: Cyclin-dependent kinase 5 (Homo sapiens) + Cyclin-dependent kinase 5 activator 1 (Homo sapiens) (UniProt Q00535+Q15078)
Sequence (Q00535 whole entry, looked up): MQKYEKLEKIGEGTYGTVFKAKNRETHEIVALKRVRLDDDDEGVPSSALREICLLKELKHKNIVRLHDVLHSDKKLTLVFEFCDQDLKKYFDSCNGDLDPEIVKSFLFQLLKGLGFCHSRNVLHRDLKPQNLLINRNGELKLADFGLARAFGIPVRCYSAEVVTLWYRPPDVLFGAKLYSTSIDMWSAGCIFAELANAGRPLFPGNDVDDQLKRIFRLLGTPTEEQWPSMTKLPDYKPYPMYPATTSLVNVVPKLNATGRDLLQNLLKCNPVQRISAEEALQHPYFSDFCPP
Sequence (Q15078 whole entry, looked up): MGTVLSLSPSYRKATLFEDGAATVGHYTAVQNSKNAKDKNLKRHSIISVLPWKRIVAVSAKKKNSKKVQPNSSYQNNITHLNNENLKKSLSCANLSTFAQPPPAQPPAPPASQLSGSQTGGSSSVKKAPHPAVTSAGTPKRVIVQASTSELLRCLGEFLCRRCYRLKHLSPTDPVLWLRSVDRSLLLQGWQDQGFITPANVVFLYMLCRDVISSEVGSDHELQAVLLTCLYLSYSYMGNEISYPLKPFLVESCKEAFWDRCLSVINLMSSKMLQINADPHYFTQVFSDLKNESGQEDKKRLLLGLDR
Experiment: CDK5/p35 phosphotransfer blockade – biochemical, single concentration, primary screen (AID 488839);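 note: plate controls were DMSO neutral control for no effect and GW8510 at 10 µM for full effect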
Details: Recombinant CDK5/p35, ADP-Glo luminescence, 60 min; at 10 µM; stronger effect = higher value
In all, about 330,000 compounds went through this assay and about 35 (0.01%) were called active. These entries were drawn from the full list.
Readout Name: inhibition

CCc1ccccc1N(CC(=O)N1CCN(c2ccccc2F)CC1)S(C)(=O)=O | 0.372% (inactive)
CCc1n[nH]c(=S)n1/N=C/c1c[nH]c2ccc(Br)cc12 | 2.39% (inactive)
Cc1ccc(OCCCCc2c(C)n[nH]c2C)cc1 | 0.0918% (inactive)
CCCCCCSc1ccc([C@@H]2[C@@H]3C(=O)N(CC)C(=O)[C@@H]3[C@]3(C(=O)OC)CCCCN23)cc1OC | -6.06% (inactive)

Input: Supply measured inhibition of Cc1cc(C)cc(Oc2nc3c(C)cccn3c(=O)c2/C=C(\C#N)C(=O)NC2CCS(=O)(=O)C2)c1 (stereo not given) in your reply.
Output: 0.399% (inactive)

----------
Target: Cyclin-dependent kinase 5 (Homo sapiens) + Cyclin-dependent kinase 5 activator 1 (Homo sapiens) (UniProt Q00535+Q15078)
Experiment: CDK5/p35 phosphotransfer blockade – biochemical, single concentration, primary screen (AID 488839)
Settings: Recombinant CDK5/p35, ADP-Glo luminescence, 60 min; at 10 µM; stronger effect = higher value
About 35 (0.01%) of roughly 330,000 compounds were called active. The list is a sample of the results.
Readout Name: inhibition (%)
I only need the number, in %, no unit after it.

Worked set:
O=C(COc1coc(CN2CCN(c3ccccc3F)CC2)cc1=O)N1CCc2ccccc21 | 0.232
O=S(=O)(/N=C(/Nc1ccccc1)c1ccccc1)c1cccs1 | 0.387
CCCCC(=O)Nc1nnc(S(=O)(=O)N(C)Cc2ccco2)s1 | 1.6
COc1ccc(Cl)cc1NC(=O)CN(C)CC(=O)Nc1ccc2c(c1)OCO2 | 1.26
CCC(C)NC(=O)Cn1nc(C(F)(F)F)c2c1CCC2 (stereo unspecified) | -1.07

Next compound, inhibition to be filled in.
Input: Please supply the value of reported inhibition for the item COc1ccc(C(C)NC(=O)C2CCCC2)cc1 (stereo unspecified)
Output: -1.29

----------
Biological target: Cyclin-dependent kinase 5 (Homo sapiens) + Cyclin-dependent kinase 5 activator 1 (Homo sapiens) (UniProt Q00535+Q15078)
Assay: CDK5/p35 phosphotransfer blockade – biochemical, single concentration, primary screen (AID 488839);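 note: plate controls were DMSO neutral control for no effect and GW8510 at 10 µM for full effect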
Conditions: Recombinant CDK5/p35, ADP-Glo luminescence, 60 min; at 10 µM; stronger effect = higher value
About 35 (0.01%) of roughly 330,000 compounds were called active. A selection follows.
Readout Name: inhibition (%)
Kindly provide the numeric value in % only, without the unit symbol.

Cc1ccc(S(=O)(=O)N2C3C=CC(C3)C2C(=O)O)cc1 (centres undefined) | -7.35
CC(Nc1ccccc1)c1cccnc1 (centres undefined) | -1.25
Cc1noc(C)c1NC(=O)Nc1ccc2c(c1)C(=O)N([C@H](C)CO)C[C@H](C)[C@@H](CN(C)S(=O)(=O)c1cn(C)cn1)O2 | 0.62
CCCCN1C(=O)C(C)=C(C)C1OCCc1ccc(OC)c(OC)c1 (centres undefined) | 1.7
Cc1ccc(N(C(=O)c2ccc(S(=O)(=O)N(C)C)cc2)C2C=CS(=O)(=O)C2)cc1 (centres undefined) | 1.14
Cc1nc2nc(COc3ccccc3)[nH]n2c(=O)c1Cc1ccccc1 | -2
CCOc1ccc(C(=O)NC2CCN(CC(=O)NCc3cccs3)CC2)cc1 | 1.1
Cc1nc2c(-c3ccc(F)cc3)c(C)nn2c(C)c1CCC(=O)NCc1ccco1 | -0.00338
CCOC(=O)c1ccc2[nH]c(C)c(CN3CCN(C)CC3)c(=O)c2c1 | -4.67
O=C(CN1CCOCC1)Nc1c2c(nc3c1CCC3)CCC2 | -2.33

Now consider the entry below.
Input: Please report the measured inhibition for COC(=O)c1cc(S(=O)(=O)Nc2ccc(C)c(F)c2)c[nH]1
Output: 1.29

----------
Overview of reported inhibition across a group of compounds:
Target: Cyclin-dependent kinase 5 (Homo sapiens) + Cyclin-dependent kinase 5 activator 1 (Homo sapiens) (UniProt Q00535+Q15078)
Test: CDK5/p35 phosphotransfer blockade – biochemical, single concentration, primary screen (AID 488839);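 note: plate controls were DMSO neutral control for no effect and GW8510 at 10 µM for full effect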
Conditions: Recombinant CDK5/p35, ADP-Glo luminescence, 60 min; at 10 µM; stronger effect = higher value
The campaign covered roughly 330,000 compounds. About 35 (0.01%) were called active. The list is a sample of the results.

CN(C(=O)CC1C(=O)NCCN1Cc1ccc2ccccc2c1)C1CCOCC1 (stereo unspecified) | 0.878% (inactive)
CCCN1C2=C(C(=O)CCC2)C(c2ccc(O)c(Br)c2)C2=C1CCCC2=O | 2.42% (inactive)
Cc1cc(C(C)(C)C)cc(S(=O)(=O)Nc2ccc(C(=O)O)cc2)c1C | 0.418% (inactive)

Input: Read off the recorded inhibition for CC(OC(=O)Cc1ccc(F)cc1)C(=O)N1CCc2ccccc21 (stereo unspecified)
Output: -7.94% (inactive)

Input: Complete the entry with inhibition for COc1cc(S(=O)(=O)N2CCOCC2)ccc1NC(=O)COc1ccc(N(C)S(=O)(=O)c2ccc(C)cc2)cc1
Output: -0.554% (inactive)

Input: Using the record for C[C@H](NC(=O)C1CC(=O)N(c2ccc3c(c2)OCO3)C1)C(=O)NCc1ccco1 (stereo partly specified) , state its measured inhibition.
Output: -0.436% (inactive)

Input: Please look at this compound and report its inhibition: CCOc1ccc(OCCSc2nc3ccccc3n2CC(=O)O)cc1
Output: 0.306% (inactive)

Input: Specify measured inhibition for N#Cc1ccccc1Sc1ccccc1C(=O)OCC(=O)NC1CCCCC1 .
Output: -1.96% (inactive)

----------
Recorded inhibition by entry
Target: Cyclin-dependent kinase 5 (Homo sapiens) + Cyclin-dependent kinase 5 activator 1 (Homo sapiens) (UniProt Q00535+Q15078)
Assay: CDK5/p35 phosphotransfer blockade – biochemical, single concentration, primary screen (AID 488839);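 note: plate controls were DMSO neutral control for no effect and GW8510 at 10 µM for full effect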
Settings: Recombinant CDK5/p35, ADP-Glo luminescence, 60 min; at 10 µM; stronger effect = higher value
Hit rate of the full screen: of about 330,000 compounds, about 35 (0.01%) were called active. These entries were drawn from the full list.
The reply should contain only the number, in %.

CC(=O)Nc1ccc(OC(=O)COc2ccc(Br)cc2)cc1 | -1.45
NS(=O)(=O)c1ccc(CCNC(=O)NC2CCCCC2)cc1 | -0.391
O=C(O)/C(=C/c1cccnc1)NC(=O)c1ccccc1 | 1.62
O=C(OCC(=O)N1CCCC1)c1ccc(Cl)nc1 | 1.02
O=C(CSc1nnc(SCc2ccc(Cl)cc2)s1)N/N=C/c1ccccc1Cl | -1.05

Input: Identify measured inhibition associated with OCc1nc(CO)n(Cc2ccccc2)n1
Output: -0.111

Input: Please report the measured inhibition for S=C(NCC1CCCO1)N1CCN(c2ccc(Cl)c(Cl)c2)CC1 (configuration not stated)
Output: -0.238

Input: Give the measured inhibition for Cc1cccc(-n2c(SCC(=O)Nc3cccc(S(=O)(=O)NC4=NCCCCC4)c3)nc3ccccc3c2=O)c1C
Output: 0.0416

Input: Using known records, supply inhibition for Cc1ccc(C)c(NS(=O)(=O)c2cc(Br)cnc2N)c1
Output: -0.401

Input: Output inhibition of COC(=O)c1c(NC(=O)c2c(Cl)cnn2C)sc(C)c1C
Output: -2.29

Input: Give the reported value of inhibition for this record: CN1CCN(S(=O)(=O)c2ccc(N3CCN(S(=O)(=O)c4cccs4)CC3)nc2)CC1
Output: -0.333

Input: For the compound CC(/C=C/C1(O)C(C)CC(=O)CC1(C)C)OC1OC(CO)C(O)C(O)C1O (configuration not stated) , give its measured inhibition value.
Output: -0.525

Input: Specify reported inhibition for the compound shown: O=c1cc(Cl)c2ccccc2n1-c1ccccc1
Output: -0.318

Input: Specify reported inhibition for the compound shown: COc1cccc2c1OCC(C(=O)NCc1ccc(Cl)cc1Cl)=C2
Output: -2.22

Input: Consider the compound CC1C(C)N(C(=O)CCl)c2ccccc2N1C(=O)CCl (configuration not stated) and give its recorded inhibition.
Output: 1.01

Input: Name the recorded inhibition of the compound listed here: CC(C)[C@@H](C(=O)O)N(Cc1cccc(CN([C@H](C(=O)O)C(C)C)S(C)(=O)=O)c1)S(C)(=O)=O
Output: -2.67

Input: Indicate its recorded inhibition; the compound in question is COc1ccc(CCNC(=O)C(=O)NCC2OCCN2S(=O)(=O)c2ccc(OC)c(C)c2)cc1 (configuration not stated)
Output: 1.39

Input: Quickly give me recorded inhibition for CCOc1ccccc1NC(=O)COc1ccc(S(=O)(=O)N2CCCC2)cc1
Output: -0.338

Input: Give me measured inhibition, please, for this compound: CC1(C)CC(=O)C(C2=NC(C)(C)Cc3ccccc32)=C(O)C1
Output: 0.357

Input: Entry CCCc1nc2oc3c(=O)[nH]cnc3c2c2c1COC(C)(C)C2 needs its inhibition filled in; supply it.
Output: -0.359

Input: Provide inhibition value for the following compound: Cc1nn(-c2ccccc2)c(CC(C)(C)C(=O)O)c1C(=O)O
Output: 0.362

Input: Output inhibition of CC(=O)Nc1ccc(NC(=O)C(C)OC(=O)C2CC(=O)N(CCc3ccccc3)C2)cc1 (configuration not stated)
Output: -2.5
